Kindly supply the reported Dwarfs (number not rescued) values for the records listed here.
- System: transgenic line 719 soybean
- PROTOCOL TEXT: Field trial of seed coatings under soil compaction / different soils, GA-deficient soybean
- Type: in vivo, Glycine max
- MEASUREMENT CONDITIONS: Line 719; Light soil - Loose; target rate 2.0 μg/seed; Table 24
Give just the numeric value; e need not be written.

Please give measured Dwarfs (number not rescued) of the following entry: C=C1C[C@]23C[C@@]1(O)CC[C@H]2[C@@]12CC=C[C@@](C)(C(=O)O1)[C@H]2[C@@H]3C(=O)O 0

// fetch Dwarfs (number not rescued) given entry C=C1C[C@]23C[C@@]1(O)CC[C@H]2[C@@]12C=C[C@H](O)[C@@](C)(C(=O)O1)[C@H]2[C@@H]3C(=O)O 0

For C=C1C[C@]23C[C@H]1CC[C@H]2[C@@]12CCC[C@@](C)(C(=O)O1)[C@H]2[C@@H]3C(=O)O , write its Dwarfs (number not rescued). 2.3

---

- PROTOCOL TEXT: Half-lives of 14C-labelled GA compounds in planta
- MEASUREMENT CONDITIONS: Asgrow 3237, soybean (Glycine max), in vivo
RESULT TYPE: half-life

Entry C=C1C[C@]23C[C@@]1(O)CC[C@H]2[C@@]12C=C[C@H](O)[C@@](C)(C(=O)O1)[C@H]2[C@@H]3C(=O)O needs its half-life filled in; supply it. 48 to 72 h

---

- Tested on: wild-type soybean line A4922
- PROTOCOL TEXT: Field trial of seed coating application rates, wild-type soybean
- MEASUREMENT CONDITIONS: 1 μg compound per seed
RESULT TYPE: No. A4922 Emerged, Heavy soil

# return recorded No. A4922 Emerged, Heavy soil for input C=C1C[C@]23C[C@@]1(O)CC[C@H]2[C@@]12CC=C[C@@](C)(C(=O)O1)[C@H]2[C@@H]3C(=O)O 37.3 b-f

Supply reported No. A4922 Emerged, Heavy soil belonging to this compound: C=C1C[C@]23C[C@H]1CC[C@H]2[C@@]12CCC[C@@](C)(C(=O)O1)[C@H]2[C@@H]3C(=O)O 43.0 a-d

Give me measured No. A4922 Emerged, Heavy soil, please, for this compound: C=C1C[C@]23C[C@H]1CC[C@H]2[C@]1(C)CCC[C@@](C)(C(=O)O)[C@H]1[C@@H]3C(=O)O 48.0 ab

Entry C=C1C[C@]23C[C@@]1(O)CC[C@H]2[C@@]12C=C[C@H](O)[C@@](C)(C(=O)O1)[C@H]2[C@@H]3C(=O)O needs its No. A4922 Emerged, Heavy soil filled in; supply it. 16.7 g

---

Exercise: for every item that follows, state its recorded 1st internode length (12 DAP).
- Test system: wild-type A3237 soybean
- PROTOCOL TEXT: Hilum treatment of soybean seeds, seedling growth and development, wild-type soybean
- Type: in vivo, Glycine max
- Parameters: key: pos: emergence faster/stem segment longer than controls; 0: emergence timing/stem segment length similar to controls; neg: emergence slower/stem segment shorter than controls
- MEASUREMENT CONDITIONS: single rate per compound 8.3-16.5 μg/seed
In your answer, state the number alone without any accompanying words.

Read off the recorded 1st internode length (12 DAP) for C=C1C[C@]23C[C@@]1(O)CC[C@H]2[C@@]12C=C[C@H](OC(C)=O)[C@@](C)(C(=O)O1)[C@H]2[C@@H]3C(=O)O [GA3-3-acetate] 0

Identify measured 1st internode length (12 DAP) corresponding to C=C1C[C@]23C[C@@]1(O)CC[C@H]2[C@@]12C=C[C@H](O)[C@@](C)(C(=O)O1)[C@H]2[C@@H]3C(=O)O 0

---

- System: transgenic line 719 soybean
- PROTOCOL TEXT: Field trial of seed coatings under soil compaction / different soils, GA-deficient soybean
- Format: in vivo, Glycine max
- MEASUREMENT CONDITIONS: Line 719; Light soil - Compacted; target rate 2.0 μg/seed; Table 22
RESULT TYPE: Count (emergence)

Return the recorded Count (emergence) value; entry: C=C1C[C@]23C[C@@]1(O)CC[C@H]2[C@@]12C=C[C@H](O)[C@@](C)(C(=O)O1)[C@H]2[C@@H]3C(=O)O 19 fg

Hello, please tell me recorded Count (emergence) for this one: C=C1C[C@]23C[C@H]1CC[C@H]2[C@@]12CCC[C@@](C)(C(=O)O1)[C@H]2[C@@H]3C(=O)O 38 abc

For the compound C=C1C[C@]23C[C@@]1(O)CC[C@H]2[C@@]12CC=C[C@@](C)(C(=O)O1)[C@H]2[C@@H]3C(=O)O , give its measured Count (emergence) value. 30 a-f

Entry C=C1C[C@]23C[C@@]1(O)CC[C@H]2[C@@]12C=C[C@H](OC(C)=O)[C@@](C)(C(=O)O1)[C@H]2[C@@H]3C(=O)O [GA3-3-acetate] needs its Count (emergence) filled in; supply it. 22 efg

---

- System: non-transgenic soybean line A4922
- PROTOCOL TEXT: Field trial of seed coatings under soil compaction / different soils, wild-type soybean
- Type: in vivo, Glycine max
- MEASUREMENT CONDITIONS: A4922; Heavy soil - loose; target rate 2.0 μg/seed; Table 22
RESULT TYPE: Height (total plant height) (bcd cm)
Report the figure in bcd cm without appending any unit label.

Name the recorded Height (total plant height) of C=C1C[C@]23C[C@@]1(O)CC[C@H]2[C@@]12C=C[C@H](O)[C@@](C)(C(=O)O1)[C@H]2[C@@H]3C(=O)O [GA3, gibberellic acid] , assay system non-transgenic soybean line A4922. 6.7

Under non-transgenic soybean line A4922, report Height (total plant height) for C=C1C[C@]23C[C@@]1(O)CC[C@H]2[C@@]12CC=C[C@@](C)(C(=O)O1)[C@H]2[C@@H]3C(=O)O [GA5] 6.7

---

Exercise: for every item that follows, state its recorded A4922 Height, cm, Heavy soil.
- System: wild-type soybean line A4922
- PROTOCOL TEXT: Field trial of seed coating application rates, wild-type soybean
- MEASUREMENT CONDITIONS: 1 μg compound per seed
- Experimental: GA3, GA3-3-acetate, GA5, GA9, and GA12 are evaluated in further field trials. […] In all the experiments reported in Tables 17-24, treatments are replicated three times in a randomized block design. Data are analyzed using LSD (least significant difference) 0.05 probability using the PRM 5.0 Statistical Analysis Program (SAS Institute, North Carolina).
Return type: number; implicit unit efg cm.

Read off the recorded A4922 Height, cm, Heavy soil for C=C1C[C@]23C[C@H]1CC[C@H]2[C@]1(C)CCC[C@@](C)(C(=O)O)[C@H]1[C@@H]3C(=O)O [GA12] 5.7

For the compound C=C1C[C@]23C[C@@]1(O)CC[C@H]2[C@@]12C=C[C@H](O)[C@@](C)(C(=O)O1)[C@H]2[C@@H]3C(=O)O [GA3, gibberellic acid] , report A4922 Height, cm, Heavy soil. 6.0

Note down A4922 Height, cm, Heavy soil recorded for C=C1C[C@]23C[C@H]1CC[C@H]2[C@@]12CCC[C@@](C)(C(=O)O1)[C@H]2[C@@H]3C(=O)O [GA9] 6.3

---

- Test system: constitutively GA-deficient transgenic dwarf soybean line 719
- PROTOCOL TEXT: Field trial of seed coating application rates, GA-deficient soybean
- Assay type: in vivo, Glycine max
- MEASUREMENT CONDITIONS: 1 μg compound per seed, seed coating
Assign No. 719 Not Rescued, Heavy soil to each entry below.
Enter your answer as a number in ef; do not include the unit.

Query No. 719 Not Rescued, Heavy soil for C=C1C[C@]23C[C@@]1(O)CC[C@H]2[C@@]12CC=C[C@@](C)(C(=O)O1)[C@H]2[C@@H]3C(=O)O [GA5] 0.7

For C=C1C[C@]23C[C@@]1(O)CC[C@H]2[C@@]12C=C[C@H](O)[C@@](C)(C(=O)O1)[C@H]2[C@@H]3C(=O)O [GA3, gibberellic acid] , write its No. 719 Not Rescued, Heavy soil. 0.3

---

- Test system: wild-type soybean line A4922
- PROTOCOL TEXT: Field trial of seed coating application rates, wild-type soybean
- MEASUREMENT CONDITIONS: 100 μg compound per seed
RESULT TYPE: No. A4922 Emerged, Light soil

Provide measured No. A4922 Emerged, Light soil value, entry: C=C1C[C@]23C[C@@]1(O)CC[C@H]2[C@@]12CC=C[C@@](C)(C(=O)O1)[C@H]2[C@@H]3C(=O)O [GA5] 46.7 c-g

Retrieve No. A4922 Emerged, Light soil measured for C=C1C[C@]23C[C@H]1CC[C@H]2[C@]1(C)CCC[C@@](C)(C(=O)O)[C@H]1[C@@H]3C(=O)O [GA12] and print it. 53.0 bc

Input C=C1C[C@]23C[C@H]1CC[C@H]2[C@@]12CCC[C@@](C)(C(=O)O1)[C@H]2[C@@H]3C(=O)O [GA9] , output reported No. A4922 Emerged, Light soil. 40.0 f-i

Please report No. A4922 Emerged, Light soil for the following molecule: C=C1C[C@]23C[C@@]1(O)CC[C@H]2[C@@]12C=C[C@H](O)[C@@](C)(C(=O)O1)[C@H]2[C@@H]3C(=O)O [GA3, gibberellic acid] 38.0 hi

Values compiled from patent US6723897B2.
